This collection of values is drawn from patent US7223781B2.

Would you kindly list pIC50 for each of these molecules?
Target: COX-1 (Sus scrofa)
Construct: A platelet suspension obtained from pig's blood is preincubated with the test substance; endogenous in cells; host or cells: platelets from pig's blood
Experiment: In-vitro test for COX-1 inhibition: fluorimetric quantification of malonaldehyde (MDA) in A23187-activated pig platelet suspension
Type: cell-based
Settings: Table 5, heteroarylmethyl sulfides; pig platelets; read-out: MDA IC50
pIC50 is defined as minus the log10 of a concentration measured in mol/L.

Specify measured pIC50 for `COc1ccc(-c2nc(SCc3ccc4ccccc4n3)[nH]c2-c2ccc(OC)cc2)cc1` . 7.05

Hello, please tell me recorded pIC50 for this one: `c1ccc(-c2nc(SCc3ccccn3)[nH]c2-c2ccccc2)cc1` 6.15

###

Target: COX-1 (Sus scrofa)
Construct: A platelet suspension obtained from pig's blood is preincubated with the test substance; endogenous in cells; host or cells: platelets from pig's blood
Assay: In-vitro test for COX-1 inhibition: fluorimetric quantification of malonaldehyde (MDA) in A23187-activated pig platelet suspension
Assay type: cell-based
Conditions: Table 9, alkylamides; pig platelets; read-out: MDA pIC50 (converted)
VALUE TYPE: IC50 (nM)
Please respond with the number in nM and leave the unit unwritten.

Please look at `COc1ccc(-c2nc(SCCNC(=O)C=Cc3ccccc3)[nH]c2-c2ccc(OC)cc2)cc1` and tell me its recorded IC50 on COX-1 (Sus scrofa). 182

Determine reported IC50 for `COc1ccc(-c2nc(SCCNC(=O)CCc3ccccc3)[nH]c2-c2ccc(OC)cc2)cc1` ; test system: COX-1 (Sus scrofa). 151

Report IC50 under test system COX-1 (Sus scrofa) for `CC(=O)NCCSc1nc(-c2ccc(Cl)cc2)c(-c2ccc(Cl)cc2)[nH]1` . 1100

Lab note: COX-1 (Sus scrofa) assay, enter IC50 for `COc1ccc(-c2nc(SCCNC(=O)C(c3ccccc3)c3ccccc3)[nH]c2-c2ccc(OC)cc2)cc1` here 129

Provide IC50, tested on COX-1 (Sus scrofa), for `COc1ccc(-c2nc(SCCNC(=O)C(C)(C)C)[nH]c2-c2ccc(OC)cc2)cc1` . 417

Write IC50 of `COc1ccc(-c2nc(SCCNC(C)=O)[nH]c2-c2ccc(OC)cc2)cc1` ; system used: COX-1 (Sus scrofa) 10

###

Biological target: COX-1 (Sus scrofa, UniProt A0A287ANF9)
Construct: A platelet suspension obtained from pig's blood is preincubated with the test substance; endogenous in cells; host or cells: platelets from pig's blood
Sequence (A0A287ANF9 25-600): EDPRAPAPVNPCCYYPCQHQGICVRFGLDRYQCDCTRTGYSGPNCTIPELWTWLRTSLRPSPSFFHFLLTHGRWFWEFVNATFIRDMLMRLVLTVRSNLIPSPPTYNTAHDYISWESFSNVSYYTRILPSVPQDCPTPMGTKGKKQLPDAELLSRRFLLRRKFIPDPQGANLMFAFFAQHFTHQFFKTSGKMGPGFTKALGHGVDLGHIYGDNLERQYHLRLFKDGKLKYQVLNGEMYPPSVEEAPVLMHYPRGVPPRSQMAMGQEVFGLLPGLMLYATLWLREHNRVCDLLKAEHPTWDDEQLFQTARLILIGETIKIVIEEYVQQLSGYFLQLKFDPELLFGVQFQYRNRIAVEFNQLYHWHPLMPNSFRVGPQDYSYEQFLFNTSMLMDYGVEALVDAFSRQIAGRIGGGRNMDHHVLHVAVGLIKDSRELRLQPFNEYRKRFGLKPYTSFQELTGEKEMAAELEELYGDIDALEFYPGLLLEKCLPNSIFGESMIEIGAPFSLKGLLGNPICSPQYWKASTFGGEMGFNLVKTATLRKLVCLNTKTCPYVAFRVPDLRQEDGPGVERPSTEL
Assay: In-vitro test for COX-1 inhibition: fluorimetric quantification of malonaldehyde (MDA) in A23187-activated pig platelet suspension
Format: cell-based
Details: Table 7, arylamides; pig platelets; read-out: MDA pIC50 (converted)
VALUE TYPE: IC50 (µM)
Give the quantity in µM, number only.

Specify measured IC50 for COc1ccc(-c2nc(SCCNC(=O)c3ccc(C#N)cc3)[nH]c2-c2ccc(OC)cc2)cc1 [Compound T39] . 0.141

Give the measured IC50 for COc1ccc(-c2nc(SCCNC(=O)c3c(Cl)cccc3Cl)[nH]c2-c2ccc(OC)cc2)cc1 [Compound T36] 0.11

Tell me its IC50 given O=C(NCCSc1nc(-c2ccccc2)c(-c2ccccc2)[nH]1)c1ccccc1 [Compound T94] as the entry. 2.09

###

Molecular target: COX-1 (Sus scrofa)
Construct: A platelet suspension obtained from pig's blood is preincubated with the test substance; endogenous in cells; host or cells: platelets from pig's blood
Experiment: In-vitro test for COX-1 inhibition: fluorimetric quantification of malonaldehyde (MDA) in A23187-activated pig platelet suspension
Assay type: cell-based
Details: Table 7, arylamides; pig platelets; read-out: MDA pIC50 (converted)
VALUE TYPE: IC50 (nM)
Field: numeric (nM). Do not append units.

# return recorded IC50 for entry `COc1ccc(-c2nc(SCCNC(=O)c3ccc(Cl)cc3)[nH]c2-c2ccc(OC)cc2)cc1` 251

Please report the measured IC50 for `COc1ccc(-c2nc(SCCNC(=O)c3cc(OC)c(OC)c(OC)c3)[nH]c2-c2ccc(OC)cc2)cc1` 603

Provide measured IC50 value, entry: `COc1ccc(C(=O)NCCSc2nc(-c3ccc(OC)cc3)c(-c3ccc(OC)cc3)[nH]2)cc1` 1000

Retrieve IC50 measured for `COc1ccc(-c2nc(SCCNC(=O)c3ccccc3[N+](=O)[O-])[nH]c2-c2ccc(OC)cc2)cc1` and print it. 170

Dear colleague, please send me the reported IC50 for `COc1ccc(-c2[nH]c(SCCNC(=O)c3ccccc3)nc2-c2ccc(Cl)cc2)cc1` when you can. 3310

# return recorded IC50 for input `COc1ccc(-c2nc(SCCNC(=O)c3ccc(C)cc3)[nH]c2-c2ccc(OC)cc2)cc1` 141

Supply measured IC50 of `O=C(NCCSc1nc(-c2ccc(F)cc2)c(-c2ccc(F)cc2)[nH]1)c1ccccc1` in your reply. 1000
